Endpoint summary: IC50, system: Proto-oncogene tyrosine-protein kinase Src (Gallus gallus), multiple sources combined.
// returns not satisfied unless IC50 is strictly below 20 nM, in which case satisfied

Worked cases, answers included:
# molecularString, targetSystem, answerLabel
measured = [
    ("COc1cccc(NC(=O)Nc2nc3nc(NCCCN4CCN(C)CC4)ncc3cc2-c2c(Cl)cccc2Cl)c1", "Proto-oncogene tyrosine-protein kinase Src (Gallus gallus)", "not satisfied"),
    ("CCN(CC)CCNc1ncc2cc(-c3c(Cl)cccc3Cl)c(NC(=O)NC(C)(C)C)nc2n1", "Proto-oncogene tyrosine-protein kinase Src (Gallus gallus)", "not satisfied"),
    ("C=CC(=O)Nc1ccc2ncnc(Nc3ccc4ccccc4c3)c2c1", "Proto-oncogene tyrosine-protein kinase Src (Gallus gallus)", "not satisfied"),
    ("Cn1c(=O)c(-c2c(Cl)cccc2Cl)cc2cnc(NCCCCCC(=O)O)nc21", "Proto-oncogene tyrosine-protein kinase Src (Gallus gallus)", "not satisfied"),
    ("CN(C)CCCOc1ccc(Nc2ncc3cc(-c4c(Cl)cccc4Cl)c(=O)n(C)c3n2)cc1", "Proto-oncogene tyrosine-protein kinase Src (Gallus gallus)", "satisfied"),
    ("Cn1c(=O)c(-c2c(Cl)cccc2Cl)cc2cnc(Nc3cccc(C(=O)O)c3)nc21", "Proto-oncogene tyrosine-protein kinase Src (Gallus gallus)", "satisfied"),
]

Ask: Could you please tell me whether IC50 recorded for CN1CCC(Cn2nc(-c3ccc4cc(OC5COC5)ccc4c3)c3c(N)ncnc32)CC1 is less than 20 nM?
Reply: not satisfied

Ask: Could you please tell me whether IC50 recorded for CCNC(=O)Nc1nc2cc(NCCCN3CCN(C)CC3)ncc2cc1-c1cc(OC)cc(OC)c1 is less than 20 nM?
Reply: not satisfied
